Assay: melting temperature; fluorescence melt of hairpins on a sequencing array, two-state fit, raised by 9.35 °C to match UV melts
Settings: sodium 0.088 M
Entry flag: Y if Tm reaches 50 °C; N if it does not.

GCGGAGCGAAAGCACAGC ((.(.((....)).).)) : Y
GGTATCGAAAGATTAACC ((((((....)))..))) : N
GCCTGCGGAAACACAGGC (((((.(....).))))) : Y
GCTAGGGGAAACCTTGGC ((.(.((....)).).)) : N

IN: Answer whether Tm of GCCTACGGAAACGCAGGC ((((.((....)).)))) is greater than or equal to 50 °C.
OUT: Y

IN: Answer whether Tm of GAAGGGGGAAACCTCTTC ((((.((....)).)))) is greater than or equal to 50 °C.
OUT: N

IN: Answer whether Tm of GCGGCGCGAAAGCCTCGC (((..((....))..))) is greater than or equal to 50 °C.
OUT: Y

IN: Answer whether Tm of GGTTACCGAAAGGTTACC (((.(((....))).))) is greater than or equal to 50 °C.
OUT: Y

IN: Answer whether Tm of GTATAGCCGAAAGGCTAC (((..(((....)))))) is greater than or equal to 50 °C.
OUT: N

IN: Answer whether Tm of GATCGTCTTACGATC ((((((...)))))) is greater than or equal to 50 °C.
OUT: Y

====

Experiment: melting temperature; fluorescence melt of hairpins on a sequencing array, two-state fit, raised by 9.35 °C to match UV melts
Details: sodium 0.088 M
Entry flag: Fulfilled if Tm reaches 50 °C; Not fulfilled if it does not.

IN: Answer whether Tm of GATCCATATGTGGATC ((((((....)))))) is greater than or equal to 50 °C.
OUT: Fulfilled

IN: Answer whether Tm of GGTGGGGGAAACCCCGTC (..((((....))))..) is greater than or equal to 50 °C.
OUT: Not fulfilled

IN: Answer whether Tm of TAAGCGAAAGCTTA (((((....))))) is greater than or equal to 50 °C.
OUT: Fulfilled

IN: Answer whether Tm of GCAGATGGAAACGTTTGC (((.(.(....).).))) is greater than or equal to 50 °C.
OUT: Not fulfilled

IN: Answer whether Tm of GCAATGCGAAAGCGTAGC ((.(.((....)).).)) is greater than or equal to 50 °C.
OUT: Not fulfilled

IN: Answer whether Tm of GTAAGTCGAAAGACATAC (((.(((....))).))) is greater than or equal to 50 °C.
OUT: Not fulfilled

IN: Answer whether Tm of GATTAACGAAAGTTATC (((.(((....)))))) is greater than or equal to 50 °C.
OUT: Not fulfilled

IN: Answer whether Tm of GTGTGCCGAAAGGCCAC (((.(((....)))))) is greater than or equal to 50 °C.
OUT: Fulfilled

IN: Answer whether Tm of GTTACCGAAAGGTCAAC ((((((....))).))) is greater than or equal to 50 °C.
OUT: Not fulfilled

IN: Answer whether Tm of GGCAGGGGAAACCTTGCC ((((.((....)).)))) is greater than or equal to 50 °C.
OUT: Fulfilled

IN: Answer whether Tm of GCATAGCGAAAGCCTTGC (((..((....))..))) is greater than or equal to 50 °C.
OUT: Not fulfilled

IN: Answer whether Tm of GTACGCGAAAGCGCATAC ((((((....)))..))) is greater than or equal to 50 °C.
OUT: Not fulfilled

IN: Answer whether Tm of GTGGCCGAAAGGCTCAC ((((((....))).))) is greater than or equal to 50 °C.
OUT: Fulfilled

IN: Answer whether Tm of GCTCCGCGAAAGCATAGC (((..((....))..))) is greater than or equal to 50 °C.
OUT: Not fulfilled

IN: Answer whether Tm of GCCGAGCCGAAAGGCGGC (((..(((....)))))) is greater than or equal to 50 °C.
OUT: Fulfilled

IN: Answer whether Tm of GCGATCCGAAAGGACCGC (((.(((....))).))) is greater than or equal to 50 °C.
OUT: Fulfilled

====

Test: folding enthalpy; higher = less favourable; fluorescence melt of hairpins on a sequencing array, two-state fit
Conditions: sodium 0.088 M
Entry flag: T if folding enthalpy reaches -20 kcal/mol; F if it does not.

Known results for sequences:
GTATTAGCGAAAGCTTAC (((..(((....)))))) : T
GTCCAGTCGAAAGACGAC (((..(((....)))))) : T
GGACGCGGAAACACGCCC ((.((.(....).)).)) : T
GTTACGGGAAACCGTAAC (((((((....))))))) : F
GGTAAGGAAACTTACC ((((((....)))))) : F
GATCACACACGTGATC ((((((....)))))) : F

IN: Answer whether folding enthalpy of GGTACTGGAAACAGTGCC ((.((((....)))).)) is greater than or equal to -20 kcal/mol.
OUT: F

IN: Answer whether folding enthalpy of GGTTTGGGAAACTAAGCC ((.((.(....).)).)) is greater than or equal to -20 kcal/mol.
OUT: T

IN: Answer whether folding enthalpy of GCGTAGCTACGC ((((....)))) is greater than or equal to -20 kcal/mol.
OUT: T

IN: Answer whether folding enthalpy of GTAATGGGAAACCACTAC (((.(((....))).))) is greater than or equal to -20 kcal/mol.
OUT: T

IN: Answer whether folding enthalpy of GCGTAAGGAAACTTGCGC (((.(((....))).))) is greater than or equal to -20 kcal/mol.
OUT: F

IN: Answer whether folding enthalpy of GCGCAGCGAAAGCAGGGC ((.(.((....)).).)) is greater than or equal to -20 kcal/mol.
OUT: T

IN: Answer whether folding enthalpy of GGTAAGCGAAAGCTCACC (((.(((....))).))) is greater than or equal to -20 kcal/mol.
OUT: F

IN: Answer whether folding enthalpy of GCATTGCGAAAGCACCGC ((..(((....)))..)) is greater than or equal to -20 kcal/mol.
OUT: T

====

Assay: melting temperature; fluorescence melt of hairpins on a sequencing array, two-state fit, raised by 9.35 °C to match UV melts
Details: sodium 0.088 M
Each entry below lists one item and its recorded Tm value.
I only need the number, in °C, no unit after it.

Solved cases (5 shown):
GTGGGCGAAAGCCCTCAC ((((((....)))..))) : 39.5
GAGAGGAAACTCTC (((((....))))) : 44.6
CGCCCGGAAACGGCGCG ((((((....))).))) : 58.4
GGCAGTCGAAAGACAGCC (((.(((....))).))) : 61.8
GTCAGGGGAAACCCTGGC (.(((((....))))).) : 53.6

IN: Determine its reported Tm: GATCAATCGATTGATC ((((((....))))))
OUT: 51.3

IN: Determine its reported Tm: GCTGAGGAAACTCAGC ((((((....))))))
OUT: 63.5

IN: Determine its reported Tm: GTTGACGCGAAAGCGAAC (((..(((....))))))
OUT: 39

IN: Determine its reported Tm: GTGGAGCGAAAGCTACAC (((.(((....))).)))
OUT: 68.2

IN: Determine its reported Tm: GAAAGCGCGAAAGCGTTC (((..(((....))))))
OUT: 28.3

IN: Determine its reported Tm: GATCCAATGTGGATC ((((((...))))))
OUT: 50.8

IN: Determine its reported Tm: GGAGTTGGAAACGATTCC (((.(.(....).).)))
OUT: 40.8

====

Each entry below lists one item and its recorded Tm value.
Test: melting temperature; fluorescence melt of hairpins on a sequencing array, two-state fit, raised by 9.35 °C to match UV melts
Conditions: sodium 0.088 M
I only need the number, in °C, no unit after it.

Solved cases (5 shown):
GATCTCAACCGAGATC ((((((....)))))) : 51.9
GATCGATGGTCGATC ((((((...)))))) : 50.6
GATCCTGGAAGGATC ((((((...)))))) : 62.8
GAGACCGAAAGGTTGCTC ((((((....)))..))) : 36.2
GTTGAAGGAAACTTCGAC ((.((((....)))).)) : 44.9

Attention now turns to another entry.
IN: Determine its reported Tm: GATCAAGCATTGATC ((((((...))))))
OUT: 52.1
